TARGET ENTITY: T1, 006 PSMA Fab
T1 construct: also called Anti-PSMA Fab
ASSAY EXPLANATION: phage ELISA; biotinylated PSMA Fab on neutravidin plate, wells pre-incubated with PSMA antigen as competitor, anti-M13-HRP detection
Measured Phage binding ELISA signal, Anti-PSMA Fab in presence of PSMA antigen, listed per entry for reference.
MEASURED PROPERTY: Phage binding ELISA signal, Anti-PSMA Fab in presence of PSMA antigen

- EAHICRPLWMCTGF (tested as crude clonal phage supernatant) [Phage-2891]: 0.0899
- MASLCVPSWMCTGF (tested as crude clonal phage supernatant) [Phage-2889]: 0.0629
- WDAKCVPRWMCDGF (tested as crude clonal phage supernatant) [Phage-2883]: 0.125
- VSKVCKPAWMCEGL (tested as crude clonal phage supernatant) [Phage-2888]: 0.104
- GDPVCKPTWMCLGF (tested as crude clonal phage supernatant) [Phage-2881]: 0.09
- VTVICKPQWMCVGF (tested as crude clonal phage supernatant) [Phage-2879]: 0.0878
